Assign MIC to each entry below.
# Tested on: Mycobacterium tuberculosis H37Rv (ATCC 25177)
# Assay explanation: Whole-cell anti-TB MIC, Resazurin Microplate Assay (REMA)
# Assay type: cell-based
# Protocol conditions: Mycobacterium tuberculosis; MTB H37Rv, REMA; read-out: Level of Activity (MIC), Susceptible (H37Rv)
Quick reminder: number only, in µg/mL, skip the unit.

## Input Check the records and state MIC for COc1ccc(C2NC(=O)c3ccccc3N2)cc1 (stereo not shown)
## Output 64

## Input Recall and state the measured MIC for COc1ccc(C2NC(=O)c3ccccc3N2)cc1OC (stereo not shown) .
## Output 64

## Input Give me measured MIC, please, for this compound: O=C1NC(c2cccc(O)c2)Nc2ccccc21 (stereo not shown)
## Output 8

## Input Fill in reported MIC for this entry: COc1cc([N+](=O)[O-])ccc1C1NC(=O)c2ccccc2N1 (stereo not shown)
## Output 2

## Input Let me know recorded MIC for O=C1NC(c2cc(Br)ccc2F)Nc2ccccc21 (stereo not shown) , thanks.
## Output 2

## Input Read off the recorded MIC for O=C1NC(c2cccc(I)c2)Nc2ccccc21 (stereo not shown)
## Output 128

* * *

So I've got a bunch of compounds here, and I need their MIC values.
# Test system: Mycobacterium tuberculosis H37Rv (ATCC 25177)
# Assay explanation: Whole-cell anti-TB MIC, Resazurin Microplate Assay (REMA)
# Format: cell-based
# Protocol conditions: Mycobacterium tuberculosis; MTB H37Rv, REMA; read-out: Level of Activity (MIC), Susceptible (H37Rv)

## Input Annotate the compound O=C1NC(c2ccc(Cl)cc2)Nc2ccccc21 (stereo not drawn) with its measured MIC.
## Output > 128 µg/mL

## Input Please report MIC for the following compound: O=C1NC(c2cccc([N+](=O)[O-])c2)Nc2ccccc21 (stereo not drawn)
## Output > 64 µg/mL

## Input Using the record for O=C1NC(c2c[nH]cn2)Nc2ccccc21 (stereo not drawn) , state its measured MIC.
## Output 4 µg/mL

* * *

# Assay explanation: MTT cytotoxicity assay
# Assay type: cell-based
# Protocol conditions: normal human fibroblast cells, mean ± SD of three replicates
Please go through the items and note down their cytotoxicity at 72 h, 100 µM.
Give your result in % as a bare value.

## Input Return the recorded cytotoxicity at 72 h, 100 µM value; entry: COc1ccc(C2NC(=O)c3ccccc3N2)cc1 (centres unmarked) [Compound 3a]
## Output 28.8

## Input Annotate the compound O=C1NC(c2c[nH]cn2)Nc2ccccc21 (centres unmarked) [Compound 3k] with its measured cytotoxicity at 72 h, 100 µM.
## Output 19.2

* * *

# System: Mycobacterium tuberculosis H37Rv (ATCC 25177)
# Assay explanation: Whole-cell anti-TB MIC, Resazurin Microplate Assay (REMA)
# Format: cell-based
# Protocol conditions: Mycobacterium tuberculosis; MTB H37Rv, REMA; read-out: Level of Activity (MIC), Susceptible (H37Rv)
Endpoint label: MIC

## Input Name the recorded MIC of the item CN(C)c1ccc(C2NC(=O)c3ccccc3N2)cc1 (stereo not shown) in your answer.
## Output > 128 µg/mL

## Input Check the records and state MIC for N#Cc1ccc(C2NC(=O)c3ccccc3N2)cc1 (stereo not shown)
## Output > 64 µg/mL

## Input Please list MIC recorded for the compound O=C1NC(c2ccc(F)cc2)Nc2ccccc21 (stereo not shown)
## Output > 64 µg/mL

## Input Look up MIC of O=C1NC(c2ccc(OC(F)(F)F)cc2)Nc2ccccc21 (stereo not shown) and report it.
## Output > 64 µg/mL
